Assay: in vivo
Settings: male, Wistar Hannover, rat, iv, 1 mg/kg
VALUE_TYPE: Vd at 4 h

1. CC(C)(C)[C@H](NC(=O)C(F)(F)F)C(=O)N1C[C@H]2[C@@H]([C@H]1C(=O)N[C@H](C#N)C[C@@H]1CCNC1=O)C2(C)C	1.8 L/kg

====

Assay: in vivo
Conditions: male, cynomolgus monkey, plasma, iv, 1 mg/kg
VALUE_TYPE: clearance (mL/min/kg)

1. CC(C)(C)[C@H](NC(=O)C(F)(F)F)C(=O)N1C[C@H]2[C@@H]([C@H]1C(=O)N[C@H](C#N)C[C@@H]1CCNC1=O)C2(C)C	17.1

====

Test: in vivo
Conditions: male, Beagle, dog, iv, 1 mg/kg
VALUE_TYPE: half-life (min)

1. CC(C)[C@H](NC(=O)C(F)(F)F)C(=O)N1C[C@H]2[C@@H]([C@H]1C(=O)N[C@@H](C[C@@H]1CCNC1=O)C(=O)c1nc3ccccc3s1)C2(C)C	54

====

Reported microsomal CLint values follow for various compounds
Test: in vitro
Conditions: human, liver microsomes
VALUE_TYPE: microsomal CLint (µL/min/mg)

1) CN(C)C(=O)N[C@H](C(=O)N1C[C@H]2[C@@H]([C@H]1C(=O)N[C@H](C#N)C[C@@H]1CCNC1=O)C2(C)C)C(C)(C)C	22.2
2) CC(C)[C@H](NC(=O)C(F)(F)F)C(=O)N1C[C@H]2[C@@H]([C@H]1C(=O)N[C@H](C#N)C[C@@H]1CCNC1=O)C2(C)C	7.9

====

Test: in vivo
Conditions: male, Wistar Hannover, rat, iv, 1 mg/kg
VALUE_TYPE: Vd at 4 h

1) CC(C)[C@H](NC(=O)C(F)(F)F)C(=O)N1C[C@H]2[C@@H]([C@H]1C(=O)N[C@@H](C[C@@H]1CCNC1=O)C(=O)c1nc3ccccc3s1)C2(C)C	2.16 L/kg

====

Experiment: in vivo
Conditions: male, Wistar Hannover, rat, plasma, iv, 1 mg/kg
VALUE_TYPE: clearance at 4 h (mL/min/kg)

1. CC(C)(C)[C@H](NC(=O)C(F)(F)F)C(=O)N1C[C@H]2[C@@H]([C@H]1C(=O)N[C@H](C#N)C[C@@H]1CCNC1=O)C2(C)C	27.2

====

The entries below come with measured bioavailability values attached.
Experiment: in vivo
Conditions: rat, po
VALUE_TYPE: bioavailability (%)

1) CC(C)[C@H](NC(=O)C(F)(F)F)C(=O)N1C[C@H]2[C@@H]([C@H]1C(=O)N[C@@H](C[C@@H]1CCNC1=O)C(=O)c1nc3ccccc3s1)C2(C)C	54
2) CC(C)[C@H](NS(C)(=O)=O)C(=O)N1C[C@H]2[C@@H]([C@H]1C(=O)N[C@@H](C[C@@H]1CCNC1=O)C(=O)c1nc3ccccc3s1)C2(C)C	7
3) COC(=O)N[C@H](C(=O)N1C[C@H]2[C@@H]([C@H]1C(=O)N[C@H](C#N)C[C@@H]1CCNC1=O)C2(C)C)C(C)(C)C	21
4) CC(C)[C@H](NC(=O)C(F)(F)F)C(=O)N1C[C@H]2[C@@H]([C@H]1C(=O)N[C@@H](C[C@@H]1CCNC1=O)C(=O)c1nc3ccccc3o1)C2(C)C	18
5) COc1cccc2[nH]c(C(=O)N[C@@H](CC(C)C)C(=O)N[C@H](C#N)C[C@@H]3CCNC3=O)cc12	7
6) CC(C)[C@H](NC(=O)C(F)(F)F)C(=O)N1C[C@H]2[C@@H]([C@H]1C(=O)N[C@H](C#N)C[C@@H]1CCNC1=O)C2(C)C	20
7) CC(=O)N[C@H](C(=O)N1C[C@H]2[C@@H]([C@H]1C(=O)N[C@H](C#N)C[C@@H]1CCNC1=O)C2(C)C)C(C)(C)C	2.8

====

Assay: in vivo
Conditions: male, Wistar Hannover, rat, iv, 1 mg/kg
VALUE_TYPE: half-life at 4 h

1. CC(C)[C@H](NC(=O)C(F)(F)F)C(=O)N1C[C@H]2[C@@H]([C@H]1C(=O)N[C@@H](C[C@@H]1CCNC1=O)C(=O)c1nc3ccccc3s1)C2(C)C	6.8 h

====

Assay: in vivo
Details: male, cynomolgus monkey, po, 10 mg/kg
VALUE_TYPE: AUC(0-t)

1. CC(C)(C)[C@H](NC(=O)C(F)(F)F)C(=O)N1C[C@H]2[C@@H]([C@H]1C(=O)N[C@H](C#N)C[C@@H]1CCNC1=O)C2(C)C	831 ng·h/mL

====

Test: in vivo
Settings: male, Wistar Hannover, rat, po, 10 mg/kg
VALUE_TYPE: AUC(0-inf) at 4 h

1. CC(C)(C)[C@H](NC(=O)C(F)(F)F)C(=O)N1C[C@H]2[C@@H]([C@H]1C(=O)N[C@H](C#N)C[C@@H]1CCNC1=O)C2(C)C	2170 ng·h/mL

====

Assay: in vivo
Settings: male, Wistar Hannover, rat, po, 100 mg/kg
VALUE_TYPE: AUC(0-inf) at 4 h (ng·h/mL)

1. CC(C)(C)[C@H](NC(=O)C(F)(F)F)C(=O)N1C[C@H]2[C@@H]([C@H]1C(=O)N[C@H](C#N)C[C@@H]1CCNC1=O)C2(C)C	68300

====

Assay: in vivo
Settings: male, cynomolgus monkey, po, 10 mg/kg
VALUE_TYPE: Cmax (µg/mL)

1. CC(C)(C)[C@H](NC(=O)C(F)(F)F)C(=O)N1C[C@H]2[C@@H]([C@H]1C(=O)N[C@H](C#N)C[C@@H]1CCNC1=O)C2(C)C	1.45

====

Experiment: in vivo
Conditions: male, cynomolgus monkey, po, 10 mg/kg
VALUE_TYPE: Tmax (h)

1. CC(C)[C@H](NC(=O)C(F)(F)F)C(=O)N1C[C@H]2[C@@H]([C@H]1C(=O)N[C@@H](C[C@@H]1CCNC1=O)C(=O)c1nc3ccccc3s1)C2(C)C	1.5

====

Experiment: in vivo
Settings: male, Wistar Hannover, rat, po, 10 mg/kg
VALUE_TYPE: AUC(0-inf) at 4 h (ng·h/mL)

1) CC(C)[C@H](NC(=O)C(F)(F)F)C(=O)N1C[C@H]2[C@@H]([C@H]1C(=O)N[C@@H](C[C@@H]1CCNC1=O)C(=O)c1nc3ccccc3s1)C2(C)C	2310

====

Assay: in vitro
Conditions: human, liver microsomes
VALUE_TYPE: microsomal CLint (µL/min/mg)

1. COc1ccc2nc(C(=O)[C@H](C[C@@H]3CCNC3=O)NC(=O)[C@@H]3[C@@H]4[C@H](CN3C(=O)[C@@H](NC(=O)C(F)(F)F)C(C)C)C4(C)C)sc2c1	20.7
2. COc1cccc2[nH]c(C(=O)N3C[C@H]4[C@@H]([C@H]3C(=O)N[C@@H](C[C@@H]3CCNC3=O)C(=O)c3nc5ccccc5s3)C4(C)C)cc12	337
3. COc1cccc2[nH]c(C(=O)N[C@@H](CC(C)C)C(=O)N[C@@H](C[C@@H]3CCNC3=O)C(=O)CO)cc12	7

====

Test: in vivo
Conditions: male, cynomolgus monkey, po, 100 mg/kg
VALUE_TYPE: Cmax (ng/mL)

1. CC(C)(C)[C@H](NC(=O)C(F)(F)F)C(=O)N1C[C@H]2[C@@H]([C@H]1C(=O)N[C@H](C#N)C[C@@H]1CCNC1=O)C2(C)C	16300

====

Assay: in vivo
Settings: male, cynomolgus monkey, plasma, iv, 1 mg/kg
VALUE_TYPE: clearance (mL/min/kg)

1. CC(C)[C@H](NC(=O)C(F)(F)F)C(=O)N1C[C@H]2[C@@H]([C@H]1C(=O)N[C@@H](C[C@@H]1CCNC1=O)C(=O)c1nc3ccccc3s1)C2(C)C	26

====

Experiment: in vitro
Conditions: human, liver microsomes
Would you please tag the item y when its microsomal CLint is 30 µL/min/mg or above, and n when it is below?

1) CC(C)[C@H](NC(=O)C(F)(F)F)C(=O)N1C[C@H]2[C@@H]([C@H]1C(=O)N[C@@H](C[C@@H]1CCNC1=O)C(=O)c1nc3cc(C(F)(F)F)ccc3s1)C2(C)C	y
2) COc1cccc2[nH]c(C(=O)N[C@@H](CC(C)(C)C)C(=O)N[C@@H](C[C@@H]3CCNC3=O)C(=O)c3nc4ccccc4s3)cc12	y
3) CC(C)[C@H](NS(C)(=O)=O)C(=O)N1C[C@H]2[C@@H]([C@H]1C(=O)N[C@@H](C[C@@H]1CCNC1=O)C(=O)c1nc3ccccc3s1)C2(C)C	y
4) CC(=O)N[C@H](C(=O)N1C[C@H]2[C@@H]([C@H]1C(=O)N[C@@H](C[C@@H]1CCNC1=O)C(=O)c1nc3ccccc3s1)C2(C)C)C(C)(C)C	n
5) CC(C)(C)[C@H](NS(C)(=O)=O)C(=O)N1C[C@H]2[C@@H]([C@H]1C(=O)N[C@H](C#N)C[C@@H]1CCNC1=O)C2(C)C	n
6) COCC(=O)[C@H](C[C@@H]1CCNC1=O)NC(=O)[C@@H]1[C@@H]2[C@H](CN1C(=O)[C@@H](NC(=O)C(F)(F)F)C(C)(C)C)C2(C)C	n
7) CC(C)(C)[C@H](NC(=O)CC(F)(F)F)C(=O)N1C[C@H]2[C@@H]([C@H]1C(=O)N[C@H](C#N)C[C@@H]1CCNC1=O)C2(C)C	n
8) CC(C)[C@H](NC(=O)C(F)(F)F)C(=O)N1C[C@H]2[C@@H]([C@H]1C(=O)N[C@@H](C[C@@H]1CCNC1=O)C(=O)c1noc(-c3ccccc3)n1)C2(C)C	y
9) CC(C)[C@H](NC(=O)C(F)(F)F)C(=O)N1C[C@H]2[C@@H]([C@H]1C(=O)N[C@@H](C[C@@H]1CCNC1=O)C(=O)c1nc3ccccc3o1)C2(C)C	n
10) CC(C)(C)[C@H](NC(=O)C(F)(F)F)C(=O)N1C[C@H]2[C@@H]([C@H]1C(=O)N[C@H](C#N)C[C@@H]1CCNC1=O)C2(C)C	n
11) COC(=O)N[C@H](C(=O)N1C[C@H]2[C@@H]([C@H]1C(=O)N[C@H](C#N)C[C@@H]1CCNC1=O)C2(C)C)C(C)(C)C	n
